For each entry below, report its max response value.
test system: HEK293; test: Cytotoxic Profiling of Annotated Libraries Using Quantitative High-Throughput Screening (AID 1296008); conditions: Five cell lines viability, CellTiter-Glo ATP luminescence, 48-72 h; stronger effect = lower value; also: % is scaled to controls: 0 for no effect and ±100 for the full control effect; nearly all actives have a fitted effect of over 60% in size
Results filed as inconclusive are left out.
Answer format: numeric, % implied, no suffix.

compound COc1ccc(S(=O)(=O)Nc2nnc(CC(C)C)s2)cc1 , max response observed: -9.93

compound COc1ccc(Cl)cc1C(=O)NCCc1ccc(S(=O)(=O)NC(=O)NC2CCCCC2)cc1 , max response observed: -12.8

compound COC(=O)C1=C(C)NC(C)=C(C(=O)OC)C1c1ccccc1[N+](=O)[O-] , max response observed: -14.4

compound CN(C)CC[C@@H](c1ccc(Cl)cc1)c1ccccn1 , max response observed: -2.7

compound C[C@H](NC(CCc1ccccc1)C(=O)O)C(=O)N1CCC[C@H]1C(=O)O (some centres undefined) , max response observed: 3.49

compound COc1ccccc1O , max response observed: -17.2

compound O=C1N=C(O)CN1/N=C/c1ccc(-c2ccc([N+](=O)[O-])cc2)o1 , max response observed: -11.3

compound Nc1ncnc2c1ncn2[C@@H]1O[C@H](CO)[C@@H](O)[C@H]1O , max response observed: 1.55

compound CCN(CC)CCNC(=O)c1cc(Cl)c(N)cc1OC , max response observed: -1.38

compound O=c1[nH]cnc2c1ncn2[C@@H]1O[C@H](CO)[C@@H](O)[C@H]1O , max response observed: 3.98

compound CN1CCOC(c2ccccc2)c2ccccc2C1 (centres undefined) , max response observed: -2.69

compound CC1=C(CC(=O)O)c2cc(F)ccc2/C1=C\c1ccc(S(C)(=O)=O)cc1 , max response observed: -17.6

compound C=Cc1c(C)c2cc3[nH]c(cc4nc(cc5nc(cc1[nH]2)C(C)=C5CCC(=O)O)C(CCC(=O)O)=C4C)c(C)c3C=C , max response observed: -10.7

compound CCOC(=O)[C@H](CCc1ccccc1)N[C@@H](C)C(=O)N1C(=O)N(C)C[C@H]1C(=O)O , max response observed: -1.24

compound Cc1cc2nc3c(=O)[nH]c(=O)nc-3n(C[C@H](O)[C@H](O)[C@H](O)CO)c2cc1C , max response observed: -5.47

compound O=C(CCCN1CCN(c2ccccn2)CC1)c1ccc(F)cc1 , max response observed: -14.9

compound C#CCN(C)Cc1ccccc1 , max response observed: -27.7

compound Cc1cc(O)cc2c1O[C@](C)(CCC[C@H](C)CCC[C@H](C)CCCC(C)C)CC2 , max response observed: 2.12

compound CC/C=C(\C(=O)N[C@@H]1C(=O)N2C(C(=O)OCOC(=O)C(C)(C)C)=C(COC(N)=O)CS[C@H]12)c1csc(N)n1 , max response observed: 1.21

compound COc1ccc2c(c1)C(=O)N(CCc1ccc(S(=O)(=O)NC(=O)NC3CCCCC3)cc1)C(=O)C2(C)C , max response observed: -11

compound CC(C)C(=O)c1c(C(C)C)nn2ccccc12 , max response observed: -1.74

compound CCN(CC)CCOC(=O)C1(C2CCCCC2)CCCCC1 , max response observed: -0.793

compound COc1cc(C(=O)N2CCOCC2)cc(OC)c1OC , max response observed: 1.96

compound C[C@@H]1C[C@H]2[C@@H]3C[C@H](F)C4=CC(=O)C=C[C@]4(C)[C@@]3(F)[C@@H](O)C[C@]2(C)[C@@]1(O)C(=O)CO , max response observed: -7.17

---

test system: CP250; test: qHTS profiling for inhibitors of Plasmodium falciparum proliferation (AID 504749); also: nearly all actives have a fitted effect of over 60% in size; conditions: P. falciparum in erythrocytes, SYBR Green DNA, 72 h; series mostly up to 28.7 µM
Records with an inconclusive call do not appear. Activity calls are given as the source filed them. Calls follow the shape of the dose curve; as a rule, active = well fitted inhibition curve with a large enough effect; inconclusive = small, poorly fitted or top-dose-only effect; inactive = flat fitted curve, though single readings scatter.
Select the matching outcome among active, inactive

Req: Could you check what this test reported for CCCCOc1cc(C(=O)OCCN(CC)CC)ccc1N ?
Resp: inactive

Req: Could you check what this test reported for CCCCCCCCCCCCCCCCCCOCC(O)CO (configuration not stated) ?
Resp: inactive

Req: Could you check what this test reported for C#CCN(C)Cc1ccccc1 ?
Resp: inactive

Req: Could you check what this test reported for CCOC(=O)[C@H](CCc1ccccc1)N[C@@H](C)C(=O)N1C(=O)N(C)C[C@H]1C(=O)O ?
Resp: inactive

Req: Could you check what this test reported for O=C1NS(=O)(=O)c2ccccc21 ?
Resp: inactive

Req: Could you check what this test reported for Nc1nc2c(ncn2CCC(CO)CO)c(=O)[nH]1 ?
Resp: inactive

Req: Could you check what this test reported for CCCCN1CCCC[C@H]1C(=O)Nc1c(C)cccc1C ?
Resp: inactive

Req: Could you check what this test reported for NCCNCCNCCNCCN ?
Resp: inactive

Req: Could you check what this test reported for COc1cc2[nH]c(=O)[nH]c(=O)c2cc1OC ?
Resp: inactive

Req: Could you check what this test reported for OCC(O)CN1CCN(c2ccccc2)CC1 (configuration not stated) ?
Resp: inactive

Req: Could you check what this test reported for Nc1ccc(S(=O)(=O)NC(=O)c2ccccc2)cc1 ?
Resp: inactive

Req: Could you check what this test reported for CCCCN(CCCC)CCCOC(=O)c1ccc(N)cc1 ?
Resp: inactive

Req: Could you check what this test reported for CCCCc1ncc(/C=C(\Cc2cccs2)C(=O)O)n1Cc1ccc(C(=O)O)cc1 ?
Resp: inactive

Req: Could you check what this test reported for O=C(O)c1ccccn1 ?
Resp: inactive

Req: Could you check what this test reported for O=C(O)CN1C(=O)c2cccc3cccc(c23)C1=O ?
Resp: inactive

Req: Could you check what this test reported for CNCCCC1c2ccccc2C=Cc2ccccc21 ?
Resp: inactive

Req: Could you check what this test reported for CC(=O)Nc1ccc(/C=N/NC(N)=S)cc1 ?
Resp: inactive

Req: Could you check what this test reported for CCCCCCCCCCCCCCCC(=O)NCCO ?
Resp: inactive

Req: Could you check what this test reported for NCC(=O)CCC(=O)O ?
Resp: inactive

Req: Could you check what this test reported for C[C@@H]1CN(c2c(F)c(F)c3c(=O)c(C(=O)O)cn(C4CC4)c3c2F)C[C@H](C)N1 ?
Resp: inactive

Req: Could you check what this test reported for CCN(CC)CCSC(=O)C(c1ccccc1)c1ccccc1 ?
Resp: inactive

Req: Could you check what this test reported for CCN(CC)CCNC(=O)c1c(C)[nH]c(/C=C2\C(=O)Nc3ccc(F)cc32)c1C ?
Resp: active

Req: Could you check what this test reported for CCCCCCCCCCCCOS(=O)(=O)O ?
Resp: inactive

Req: Could you check what this test reported for CCC(=O)c1ccc(O)cc1 ?
Resp: inactive

Req: Could you check what this test reported for Cc1c(Cl)cccc1Nc1ccccc1C(=O)O ?
Resp: inactive

Req: Could you check what this test reported for CSc1ccc2c(c1)C(N1CCN(C)CC1)Cc1ccccc1S2 (configuration not stated) ?
Resp: inactive

Req: Could you check what this test reported for CCC(=O)Nc1ccc(O)cc1 ?
Resp: inactive

---

test: Cell Viability - HUV-EC-C (AID 542); settings: HUV-EC-C endothelial cell viability, qHTS; series mostly up to 92.2 µM;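 also: cells exposed to compound for 40 hours; nearly all actives have a fitted effect of over 35% in size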
Records with an inconclusive call do not appear. Activity calls are given as the source filed them. Calls follow the shape of the dose curve; as a rule, active = well fitted cell-killing curve with a large enough effect; inconclusive = small, poorly fitted or top-dose-only effect, or effect the other way; inactive = flat fitted curve, though single readings scatter.
Select the matching outcome among 1 (yes) (active), 0 (no) (inactive)

Req: Could you check what this test reported for COc1ccccc1O ?
Resp: 0 (no)

Req: Could you check what this test reported for NC(=O)c1ncn([C@@H]2O[C@H](CO)[C@@H](O)[C@H]2O)n1 ?
Resp: 0 (no)

Req: Could you check what this test reported for NC(=O)N/N=C/c1ccc([N+](=O)[O-])o1 ?
Resp: 0 (no)

Req: Could you check what this test reported for NCCNCCNCCNCCN ?
Resp: 0 (no)

Req: Could you check what this test reported for Cc1c(O)cccc1C(=O)N[C@@H](CSc1ccccc1)[C@H](O)CN1C[C@H]2CCCC[C@H]2C[C@H]1C(=O)NC(C)(C)C ?
Resp: 1 (yes)

Req: Could you check what this test reported for NCCNCCNCCN ?
Resp: 0 (no)

---

target: Ubiquitin carboxyl-terminal hydrolase 1 (Homo sapiens) (UniProt O94782); assay: Inhibitors of USP1/UAF1: Pilot qHTS (AID 504865); conditions: purified USP1/UAF1, Ub-rhodamine cleavage fluorescence; series mostly up to 114 µM;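 also: rhodamine fluorescence freed from ubiquitin-rhodamine substrate followed over time; top concentration of the series differs between compounds; % is scaled to controls: 0 for no effect and ±100 for the full control effect; nearly all actives have a fitted effect of over 35% in size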
Sequence (O94782 whole entry, looked up): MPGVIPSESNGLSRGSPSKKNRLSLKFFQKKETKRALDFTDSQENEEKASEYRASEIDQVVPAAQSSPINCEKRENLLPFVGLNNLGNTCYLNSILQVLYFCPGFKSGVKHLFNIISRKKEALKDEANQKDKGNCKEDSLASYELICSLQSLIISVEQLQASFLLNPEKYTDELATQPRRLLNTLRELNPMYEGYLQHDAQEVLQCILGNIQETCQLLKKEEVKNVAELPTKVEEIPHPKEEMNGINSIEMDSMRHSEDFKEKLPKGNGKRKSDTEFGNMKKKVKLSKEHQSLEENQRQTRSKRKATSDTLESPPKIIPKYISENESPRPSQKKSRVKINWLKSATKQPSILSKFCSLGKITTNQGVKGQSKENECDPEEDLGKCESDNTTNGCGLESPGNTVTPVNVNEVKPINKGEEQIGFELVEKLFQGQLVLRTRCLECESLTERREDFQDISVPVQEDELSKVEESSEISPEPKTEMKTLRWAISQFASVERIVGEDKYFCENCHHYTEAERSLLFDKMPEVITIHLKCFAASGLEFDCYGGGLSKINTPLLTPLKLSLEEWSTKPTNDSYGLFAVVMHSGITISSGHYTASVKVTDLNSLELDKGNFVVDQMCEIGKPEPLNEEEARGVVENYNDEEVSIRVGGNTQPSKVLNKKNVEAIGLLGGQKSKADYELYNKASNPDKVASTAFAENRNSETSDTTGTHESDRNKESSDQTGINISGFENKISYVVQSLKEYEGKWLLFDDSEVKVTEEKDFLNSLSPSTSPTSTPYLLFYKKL
Inconclusive results are not listed. Active and inactive are the calls of the source. Calls follow the shape of the dose curve; as a rule, active = well fitted inhibition curve with a large enough effect; inconclusive = small, poorly fitted or top-dose-only effect; inactive = flat fitted curve, though single readings scatter.
OBSERVABLE: outcome

Solved entries:
# SMILES_REPR, RECORDED_VALUE
data = [
    ("CC(=O)c1ccc2c(c1)N(CCCN(C)C)c1ccccc1S2", "inactive"),
    ("NC(=O)N/N=C/c1ccc([N+](=O)[O-])o1", "inactive"),
    ("COc1cc(C)c(Cc2cnc(N)nc2N)cc1OC", "inactive"),
    ("Nc1cc(=O)[nH]c(N)n1", "inactive"),
    ("CCCCN1CCCC[C@H]1C(=O)Nc1c(C)cccc1C", "inactive"),
]

molecule Nc1ccc(S(=O)(=O)Nc2nccs2)cc1 , outcome observed: inactive

molecule CCN(CC)CCNC(=O)c1cc(Cl)c(N)cc1OC , outcome observed: inactive
